Where do these numbers come from? They come from ChEMBL document CHEMBL3232924.

System: UniProtKB P29350
Sequence (P29350 whole entry): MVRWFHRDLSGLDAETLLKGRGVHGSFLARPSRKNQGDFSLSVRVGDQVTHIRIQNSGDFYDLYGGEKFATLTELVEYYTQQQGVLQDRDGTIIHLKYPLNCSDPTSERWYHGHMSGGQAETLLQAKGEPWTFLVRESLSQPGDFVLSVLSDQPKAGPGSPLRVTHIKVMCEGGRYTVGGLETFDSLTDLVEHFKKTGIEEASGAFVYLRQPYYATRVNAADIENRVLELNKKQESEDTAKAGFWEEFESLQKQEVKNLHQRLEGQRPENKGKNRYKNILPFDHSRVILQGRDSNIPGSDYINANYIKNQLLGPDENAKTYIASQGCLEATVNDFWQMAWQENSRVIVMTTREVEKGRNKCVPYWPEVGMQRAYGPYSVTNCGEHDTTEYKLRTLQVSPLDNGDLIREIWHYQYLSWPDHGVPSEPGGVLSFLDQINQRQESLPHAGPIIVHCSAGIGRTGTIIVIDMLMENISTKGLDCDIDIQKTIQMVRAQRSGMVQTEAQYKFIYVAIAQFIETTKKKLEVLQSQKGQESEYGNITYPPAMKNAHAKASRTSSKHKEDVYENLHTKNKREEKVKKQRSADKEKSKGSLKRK
Reported property: IC50 (µM)
Only the number, expressed in µM, is required.

Ask: IC50 for "O=C(Nc1ccc(-c2ccc(NC(=O)c3ccco3)cc2)cc1)c1ccco1" ?
Reply: 38.8

---

System: UniProtKB P18031
Procedure details: Inhibition of PTP1B (unknown origin) using pNPP as substrate at 20 ug/ml
Below, each entry is listed alongside its reported inhibition.
Only the number, expressed in %, is required.

Would you please look over these solved cases?
Input smiles	System	Unit string	Test result
CC(C)CC(=O)N1CCC(C(=O)Nc2ccc(-c3ccc(NC(=O)C4CCN(C(=O)CC(C)C)CC4)cc3)cc2)CC1	UniProtKB P18031	%	70
O=C(Nc1ccc(-c2ccc(NC(=O)c3ccc(F)cc3)cc2)cc1)c1ccc(F)cc1	UniProtKB P18031	%	98.6
O=C(Nc1ccc(-c2ccc(NC(=O)[C@@H]3CCCN3)cc2)cc1)[C@@H]1CCCN1	UniProtKB P18031	%	0.7
COc1ccc(C(=O)Nc2ccc(-c3ccc(NC(=O)c4ccc(OC)cc4)cc3)cc2)cc1	UniProtKB P18031	%	11.9
O=C(Nc1ccccc1)c1ccc(-c2ccc(C(=O)Nc3ccccc3)cc2)cc1	UniProtKB P18031	%	62.8
O=C(Nc1ccc(-c2ccc(NC(=O)C3CCN(C(=O)c4ccc(F)cc4)CC3)cc2)cc1)C1CCN(C(=O)c2ccc(F)cc2)CC1	UniProtKB P18031	%	95.3

Ask: inhibition for "O=C(Nc1ccc(-c2ccc(C(=O)Nc3ccccc3)cc2)cc1)c1ccccc1" ?
Reply: 81.2

Ask: inhibition for "COC(=O)c1ccc(-c2ccc(N)cc2)cc1" ?
Reply: 31.5

Ask: inhibition for "O=C(Nc1ccc(-c2ccc(NC(=O)C3CCN(C(=O)c4ccco4)CC3)cc2)cc1)C1CCN(C(=O)c2ccco2)CC1" ?
Reply: 94

---

System: Tyrosine-protein phosphatase non-receptor type 1 (Homo sapiens)
Procedure details: Inhibition of PTP1B (unknown origin) using pNPP as substrate at 20 ug/ml
Returns Criterion met if the recorded inhibition is greater than or equal to 40%, and Criterion not met otherwise.

Input smiles	System	Qualitative label
O=C(Nc1ccc(-c2ccc(NC(=O)c3cccs3)cc2)cc1)c1cccs1	Tyrosine-protein phosphatase non-receptor type 1 (Homo sapiens)	Criterion not met

Ask: API: above_or_equal(metric=inhibition, cutoff=40%) for item "O=C(Nc1ccc(-c2ccc(NC(=O)C3CCNCC3)cc2)cc1)C1CCNCC1"
Reply: Criterion not met

Ask: API: above_or_equal(metric=inhibition, cutoff=40%) for item "O=C(Nc1ccc(F)cc1)c1ccc(-c2ccc(C(=O)Nc3ccc(F)cc3)cc2)cc1"
Reply: Criterion not met

Ask: API: above_or_equal(metric=inhibition, cutoff=40%) for item "O=C(Nc1ccc(-c2ccc(NC(=O)c3ccccc3)cn2)cc1)c1ccccc1"
Reply: Criterion met

Ask: API: above_or_equal(metric=inhibition, cutoff=40%) for item "CC(C)(C)OC(=O)N1CCC[C@H]1C(=O)Nc1ccc(-c2ccc(NC(=O)[C@@H]3CCCN3C(=O)OC(C)(C)C)cc2)cc1"
Reply: Criterion met

Ask: API: above_or_equal(metric=inhibition, cutoff=40%) for item "O=C(Nc1ccc(-c2ccc(NC(=O)C3CCN(C(=O)C4CCCCC4)CC3)cc2)cc1)C1CCN(C(=O)C2CCCCC2)CC1"
Reply: Criterion met

Ask: API: above_or_equal(metric=inhibition, cutoff=40%) for item "COc1cc(C(=O)Nc2ccc(-c3ccc(NC(=O)c4cc(OC)c(OC)c(OC)c4)cc3)cc2)cc(OC)c1OC"
Reply: Criterion met

Ask: API: above_or_equal(metric=inhibition, cutoff=40%) for item "O=C(Nc1ccc(-c2ccc(NC(=O)c3ccccc3)cc2)cc1)c1ccccc1"
Reply: Criterion met

---

System: Tyrosine-protein phosphatase non-receptor type 1 (Homo sapiens)
Procedure details: Inhibition of PTP1B (unknown origin) using pNPP as substrate at 20 ug/ml
Reported property: inhibition (%)
Only the number, expressed in %, is required.

Ask: inhibition for "O=C(Nc1ccc(-c2ccc(NC(=O)C3CCN(C(=O)c4ccccc4)CC3)cc2)cc1)C1CCN(C(=O)c2ccccc2)CC1" ?
Reply: 94.1

---

Dear all, this message contains IC50 results, target or system Tyrosine-protein phosphatase non-receptor type 1 (Homo sapiens).
Please report the result as a number followed by the unit.

Would you please look over these solved cases?
Input smiles	IC50
O=C(Nc1ccc(-c2ccc(NC(=O)c3ccco3)cc2)cc1)c1ccco1	19.3 µM
CC(C)(C)OC(=O)N1CCC(C(=O)Nc2ccc(-c3ccc(NC(=O)C4CCN(C(=O)OC(C)(C)C)CC4)cc3)cc2)CC1	9.5 µM
CC(C)CC(=O)N1CCC(C(=O)Nc2ccc(-c3ccc(NC(=O)C4CCN(C(=O)CC(C)C)CC4)cc3)cc2)CC1	12.2 µM

Shift focus to the following entry.
Ask: For Tyrosine-protein phosphatase non-receptor type 1 (Homo sapiens), provide IC50 of "O=C(Nc1ccccc1)c1ccc(-c2ccc(C(=O)Nc3ccccc3)cc2)cc1" please.
Reply: 18.5 µM

---

System: Tyrosine-protein phosphatase non-receptor type 11 (Homo sapiens, UniProt Q06124)
Procedure details: Inhibition of SHP-2 (unknown origin) using 3-o-methylfluorescein phosphate as substrate
Reported property: pIC50
As a rule, pIC50 stands for the negative log10 of the concentration, concentration in M.

Ask: pIC50 for SODIUM ORTHOVANAD ?
Reply: 4.46

---

Dear all, this message contains IC50 results, target or system Tyrosine-protein phosphatase non-receptor type 2 (Homo sapiens, UniProt P17706).
Only the number, expressed in µM, is required.

Would you please look over these solved cases?
Input smiles	IC50, µM
CC(C)(C)OC(=O)N1CCC(C(=O)Nc2ccc(-c3ccc(NC(=O)C4CCN(C(=O)OC(C)(C)C)CC4)cc3)cc2)CC1	21.2
O=C(Nc1ccc(-c2ccc(NC(=O)c3ccco3)cc2)cc1)c1ccco1	51
O=C(Nc1ccc(-c2ccc(NC(=O)C3CCN(C(=O)c4ccccc4)CC3)cc2)cc1)C1CCN(C(=O)c2ccccc2)CC1	7.62

Ask: IC50 for "O=C(Nc1ccc(-c2ccc(NC(=O)C3CCN(C(=O)c4ccco4)CC3)cc2)cc1)C1CCN(C(=O)c2ccco2)CC1" ?
Reply: 12.4

---

System: Tyrosine-protein phosphatase non-receptor type 1 (Homo sapiens) (UniProt P18031)
Sequence (P18031 whole entry): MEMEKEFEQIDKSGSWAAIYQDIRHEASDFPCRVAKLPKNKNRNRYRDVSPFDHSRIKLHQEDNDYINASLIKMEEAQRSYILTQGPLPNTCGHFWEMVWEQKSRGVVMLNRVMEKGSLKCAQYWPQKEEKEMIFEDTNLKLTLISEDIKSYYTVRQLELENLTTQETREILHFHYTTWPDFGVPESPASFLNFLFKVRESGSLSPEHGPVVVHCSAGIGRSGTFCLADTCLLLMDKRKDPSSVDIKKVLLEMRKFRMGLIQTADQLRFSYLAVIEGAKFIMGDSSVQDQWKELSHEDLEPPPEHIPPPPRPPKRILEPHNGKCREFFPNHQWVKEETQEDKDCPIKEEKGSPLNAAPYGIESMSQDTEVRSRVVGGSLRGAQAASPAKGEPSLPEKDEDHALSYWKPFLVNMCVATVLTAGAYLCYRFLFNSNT
Procedure details: Inhibition of PTP1B (unknown origin) using pNPP as substrate at 20 ug/ml
Reported property: inhibition (%)
Only the number, expressed in %, is required.

Would you please look over these solved cases?
Input smiles	inhibition [%]
O=C(Nc1ccc(-c2ccc(NC(=O)c3ccc(F)cc3)cn2)cc1)c1ccc(F)cc1	71
CC(C)(C)OC(=O)N1CCC(C(=O)Nc2ccc(-c3ccc(NC(=O)C4CCN(C(=O)OC(C)(C)C)CC4)cc3)cc2)CC1	71.1
COC(=O)c1ccc(-c2ccc(NC(=O)c3ccccc3)cc2)cc1	69.4
O=C(Nc1ccc(-c2ccc(NC(=O)c3ccco3)cn2)cc1)c1ccco1	86.4
O=C(Nc1ccc(-c2ccc(NC(=O)C3CCCCC3)cn2)cc1)C1CCCCC1	82.1
O=C(Nc1ccc(-c2ccc(NC(=O)C3CCCCC3)cc2)cc1)C1CCCCC1	84.6
CC(C)CC(=O)Nc1ccc(-c2ccc(NC(=O)CC(C)C)cc2)cc1	90.7

Shift focus to the following entry.
Ask: inhibition for "CC(C)CC(=O)Nc1ccc(-c2ccc(NC(=O)CC(C)C)cn2)cc1" ?
Reply: 58.1

---

Dear all, this message contains pIC50 results, target or system Tyrosine-protein phosphatase non-receptor type 1 (Homo sapiens).
As a rule, pIC50 stands for the negative log10 of the concentration, concentration in M.

Input smiles	pIC50
O=C(Nc1ccc(-c2ccc(NC(=O)C3CCN(C(=O)C4CCCCC4)CC3)cc2)cc1)C1CCN(C(=O)C2CCCCC2)CC1	4.83
O=C(Nc1ccc(-c2ccc(NC(=O)c3ccccc3)cc2)cc1)c1ccccc1	4.92
O=C(Nc1ccc(-c2ccc(NC(=O)C3CCN(C(=O)c4ccc(F)cc4)CC3)cc2)cc1)C1CCN(C(=O)c2ccc(F)cc2)CC1	5.30

Ask: pIC50 for "CC(C)CC(=O)Nc1ccc(-c2ccc(NC(=O)CC(C)C)cn2)cc1" ?
Reply: 4.58
